Numbers sourced from the NIST ThermoML archive (doi:10.1021/acs.jced.6b01038).

Assay: refractive index (Na D-line) (dimensionless)
Settings: 298.15 K; 101.3 kPa; Liquid; Standard Abbe refractometry
Record form. Attribute: refractive index. Fill in for each entry.
Lab note: record the figure alone, no unit after it.

So, CCN(CC)CCO [(diethylamino)ethanol] ? Its refractive index was 1.43833

So, CN(CCO)CCO [N-methyldiethanolamine] ? Its refractive index was 1.4674

So, CNCCCN [N-methyl-1,3-diaminopropane] ? Its refractive index was 1.44564

So, O [water] ? Its refractive index was 1.33249
